experimental system: THP-1 microsomal ACAT (Homo sapiens)
Construct: ACAT enzyme fraction was prepared from microsome of human leukemia THP-1 cell; endogenous in cells; host or cells: THP-1 (human leukemia), microsomes
experiment summary: Bioavailability assessment of ACAT inhibitors by their ex vivo activity (serum of dosed mice on THP-1 microsomal ACAT)
Format: in vivo
settings: female mice, 30 mg/kg per os, 1% CMC-Na 0.2% Tween 80; maximum inhibition by serum
// Imax Ex vivo lookup, one value per entry

compound: CCCNC(=O)Nc1ccc(N(C)C)cc1C(=O)NCC1CCN(C(c2ccccc2)c2ccccc2)CC1
experimental system: THP-1 microsomal ACAT (Homo sapiens)
Imax Ex vivo, %: 77.59
--
compound: CCCCCNC(=O)Nc1ccc(N(C)C)cc1C(=O)NCC1CCN(C(c2ccccc2)c2ccccc2)CC1
experimental system: THP-1 microsomal ACAT (Homo sapiens)
Imax Ex vivo, %: 39.01
--
compound: CCCCNC(=O)Nc1ccc(-n2ccnc2)cc1C(=O)NCC1CCN(C(c2ccccc2)c2ccccc2)CC1
experimental system: THP-1 microsomal ACAT (Homo sapiens)
Imax Ex vivo, %: 43.14
--
compound: CCCCNC(=O)Nc1ccc(SC)cc1C(=O)NCC1CCN(C(c2ccccc2)c2ccccc2)CC1
experimental system: THP-1 microsomal ACAT (Homo sapiens)
Imax Ex vivo, %: 38.17
--
compound: CCCCNC(=O)Nc1ccc(OC)cc1C(=O)NCC1CCN(C(c2ccccc2)c2ccccc2)CC1
experimental system: THP-1 microsomal ACAT (Homo sapiens)
Imax Ex vivo, %: 51.97
--
compound: CCCCNC(=O)Nc1ccc(N(CC)CC)cc1C(=O)NCC1CCN(C(c2ccccc2)c2ccccc2)CC1
experimental system: THP-1 microsomal ACAT (Homo sapiens)
Imax Ex vivo, %: 62.57
--
compound: CCCCCCCNC(=O)Nc1ccc(N(C)C(C)=O)cc1C(=O)NCC1CCN(C(c2ccccc2)c2ccccc2)CC1
experimental system: THP-1 microsomal ACAT (Homo sapiens)
Imax Ex vivo, %: 61.47
--
compound: CCCCCCCNC(=O)Nc1ccc(N(C)C)cc1C(=O)NCC1CCN(C(c2ccc(OC)cc2)c2ccc(OC)cc2)CC1
experimental system: THP-1 microsomal ACAT (Homo sapiens)
Imax Ex vivo, %: 28.35
--
compound: CCCCCCCNC(=O)Nc1ccc(N2CCOCC2)cc1C(=O)NCC1CCN(C(c2ccccc2)c2ccccc2)CC1
experimental system: THP-1 microsomal ACAT (Homo sapiens)
Imax Ex vivo, %: 50.15
--
compound: CCCCNC(=O)Nc1ccc(N2CCCC2)cc1C(=O)NCC1CCN(C(c2ccccc2)c2ccccc2)CC1
experimental system: THP-1 microsomal ACAT (Homo sapiens)
Imax Ex vivo, %: 37.43
--
compound: CCCCNC(=O)Nc1ccc(OCC2CC2)cc1C(=O)NCC1CCN(C(c2ccccc2)c2ccccc2)CC1
experimental system: THP-1 microsomal ACAT (Homo sapiens)
Imax Ex vivo, %: 40.11
--
compound: CCCCCCCNC(=O)Nc1ccc(N(C)C)cc1C(=O)NCC1CCN(Cc2ccccc2-c2ccccc2)CC1
experimental system: THP-1 microsomal ACAT (Homo sapiens)
Imax Ex vivo, %: 20.45
--
compound: CCCCCCCNC(=O)Nc1ccc(-n2cccn2)cc1C(=O)NCC1CCN(C(c2ccccc2)c2ccccc2)CC1
experimental system: THP-1 microsomal ACAT (Homo sapiens)
Imax Ex vivo, %: 5.75
--
compound: CCCCNC(=O)Nc1ccc(N(C)C)cc1C(=O)NCC1CCN(C(c2ccccc2)c2ccccc2)CC1
experimental system: THP-1 microsomal ACAT (Homo sapiens)
Imax Ex vivo, %: 68.52
--
compound: CCCCCCCNC(=O)Nc1ccc(N2CCCC2)cc1C(=O)NCC1CCN(C(c2ccccc2)c2ccccc2)CC1
experimental system: THP-1 microsomal ACAT (Homo sapiens)
Imax Ex vivo, %: 11.33
--
compound: CCCCNC(=O)Nc1ccc(OCC)cc1C(=O)NCC1CCN(C(c2ccccc2)c2ccccc2)CC1
experimental system: THP-1 microsomal ACAT (Homo sapiens)
Imax Ex vivo, %: 50.51
--
compound: CCCCCCCNC(=O)Nc1ccc(N(C)C)cc1C(=O)NCC1CCN(C(c2ccc(F)cc2)c2ccc(F)cc2)CC1
experimental system: THP-1 microsomal ACAT (Homo sapiens)
Imax Ex vivo, %: 24.17
--
compound: CCCCNC(=O)Nc1ccc([S+](C)[O-])cc1C(=O)NCC1CCN(C(c2ccccc2)c2ccccc2)CC1 (stereo not drawn)
experimental system: THP-1 microsomal ACAT (Homo sapiens)
Imax Ex vivo, %: 62.01
--
compound: CCCCNC(=O)Nc1ccc(OC(=O)NCCCC)cc1C(=O)NCC1CCN(C(c2ccccc2)c2ccccc2)CC1
experimental system: THP-1 microsomal ACAT (Homo sapiens)
Imax Ex vivo, %: 41.37
--
compound: CCCNC(=O)Nc1ccc(N2CCOCC2)cc1C(=O)NCC1CCN(C(c2ccccc2)c2ccccc2)CC1
experimental system: THP-1 microsomal ACAT (Homo sapiens)
Imax Ex vivo, %: 81.1
--
compound: CCCCNC(=O)Nc1ccc(S(C)(=O)=O)cc1C(=O)NCC1CCN(C(c2ccccc2)c2ccccc2)CC1
experimental system: THP-1 microsomal ACAT (Homo sapiens)
Imax Ex vivo, %: 63.56

----------
molecules and their reported IC50
experimental system: THP-1 microsomal ACAT (Homo sapiens)
Construct: ACAT enzyme fraction was prepared from microsome of human leukemia THP-1 cell; endogenous in cells; host or cells: THP-1 (human leukemia), microsomes
Sequence (P35610 1-550): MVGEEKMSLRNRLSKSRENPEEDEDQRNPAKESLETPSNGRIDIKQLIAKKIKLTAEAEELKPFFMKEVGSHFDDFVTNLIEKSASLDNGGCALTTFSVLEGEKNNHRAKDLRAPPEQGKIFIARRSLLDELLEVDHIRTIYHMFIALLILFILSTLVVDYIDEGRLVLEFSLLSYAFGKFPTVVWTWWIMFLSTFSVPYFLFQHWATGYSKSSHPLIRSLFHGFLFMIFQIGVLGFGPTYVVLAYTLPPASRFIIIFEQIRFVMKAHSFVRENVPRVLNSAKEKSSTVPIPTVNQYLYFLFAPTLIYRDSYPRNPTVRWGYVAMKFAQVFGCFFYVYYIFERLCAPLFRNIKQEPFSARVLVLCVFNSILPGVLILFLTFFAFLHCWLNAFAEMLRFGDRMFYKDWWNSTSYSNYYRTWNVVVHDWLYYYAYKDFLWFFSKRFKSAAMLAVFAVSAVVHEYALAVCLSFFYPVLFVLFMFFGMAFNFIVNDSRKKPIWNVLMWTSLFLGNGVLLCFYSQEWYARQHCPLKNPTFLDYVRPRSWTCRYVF
experiment summary: In vitro test using THP-1 microsome (ACAT inhibition)
Format: biochemical
settings: THP-1 microsome; read-out: IC50 THP1 microsome
parameter: IC50 (nM)

molecule: CCCCCCCNC(=O)Nc1ccc(N2CCCC2)cc1C(=O)NCC1CCN(C(c2ccccc2)c2ccccc2)CC1
unit annotation: nM
measured result: 60

molecule: CCCCCCCNC(=O)Nc1ccc(N2CCOCC2)cc1C(=O)NCC1CCN(C(c2ccccc2)c2ccccc2)CC1
unit annotation: nM
measured result: 100

molecule: CCCCNC(=O)Nc1ccc(NC)cc1C(=O)NCC1CCN(C(c2ccccc2)c2ccccc2)CC1
unit annotation: nM
measured result: 200

molecule: CCCCCCCNC(=O)Nc1ccc(N(C)C)cc1C(=O)NCC1CCCN(C(c2ccccc2)c2ccccc2)C1 (stereo not shown)
unit annotation: nM
measured result: 60

molecule: CCCCNC(=O)Nc1ccc(OCC2CC2)cc1C(=O)NCC1CCN(C(c2ccccc2)c2ccccc2)CC1
unit annotation: nM
measured result: 30

molecule: CCCCCCCNC(=O)Nc1ccc(N(C)C)cc1C(=O)NCC1CCN(C(c2ccc(OC)cc2)c2ccc(OC)cc2)CC1
unit annotation: nM
measured result: 100

molecule: CCCCCCCNC(=O)Nc1ccc(-n2cccn2)cc1C(=O)NCC1CCN(C(c2ccccc2)c2ccccc2)CC1
unit annotation: nM
measured result: 100

----------
experimental system: THP-1 microsomal ACAT (Homo sapiens, UniProt P35610)
Construct: ACAT enzyme fraction was prepared from microsome of human leukemia THP-1 cell; endogenous in cells; host or cells: THP-1 (human leukemia), microsomes
experiment summary: In vitro test using THP-1 microsome (ACAT inhibition)
Format: biochemical
settings: THP-1 microsome; read-out: IC50 THP1 microsome
// NB: equality with 90 nM counts as NO; only IC50 strictly below is YES

item smiles: CCCCNC(=O)Nc1ccc(N2CCOCC2)cc1C(=O)NCC1CCN(C(c2ccccc2)c2ccccc2)CC1
class label: YES

item smiles: CCCCCCCNC(=O)Nc1ccc(N(C)C(C)=O)cc1C(=O)NCC1CCN(C(c2ccccc2)c2ccccc2)CC1
class label: YES

item smiles: CCCCCCCNC(=O)Nc1ccc(N(C)C)cc1C(=O)NCC1CCN(C(c2ccc(Cl)cc2)c2ccc(Cl)cc2)CC1
class label: NO

item smiles: CCCCNC(=O)Nc1ccc(OC)cc1C(=O)NCC1CCN(C(c2ccccc2)c2ccccc2)CC1
class label: YES

item smiles: CCCCNC(=O)Nc1ccc(OCC)cc1C(=O)NCC1CCN(C(c2ccccc2)c2ccccc2)CC1
class label: YES

item smiles: CCCCNC(=O)Nc1ccc(N)cc1C(=O)NCC1CCN(C(c2ccccc2)c2ccccc2)CC1
class label: NO

item smiles: CCCCCCCNC(=O)Nc1ccc(-n2ccnc2)cc1C(=O)NCC1CCN(C(c2ccccc2)c2ccccc2)CC1
class label: NO

item smiles: CCCCCCCNC(=O)Nc1ccc(OCC)cc1C(=O)NCC1CCN(C(c2ccccc2)c2ccccc2)CC1
class label: YES

item smiles: CCCCCCCNC(=O)Nc1ccc(N(CC)CC)cc1C(=O)NCC1CCN(C(c2ccccc2)c2ccccc2)CC1
class label: NO

item smiles: CCCCCNC(=O)Nc1ccc(N(C)C)cc1C(=O)NCC1CCN(C(c2ccccc2)c2ccccc2)CC1
class label: YES

item smiles: CCCCCCCCCCNC(=O)Nc1ccc(N(C)C)cc1C(=O)NCC1CCN(C(c2ccccc2)c2ccccc2)CC1
class label: NO

item smiles: CCCNC(=O)Nc1ccc(N(C)C)cc1C(=O)NCC1CCN(C(c2ccccc2)c2ccccc2)CC1
class label: YES

item smiles: CCCCCCCNC(=O)Nc1ccc(OC)cc1C(=O)NCC1CCN(C(c2ccccc2)c2ccccc2)CC1
class label: YES

Data origin: patent US5872115A
